Entry source: patent US6310095A

% inhibition of farnesyltransferase by entry:
# target system: protein farnesyltransferase (Rattus norvegicus, UniProt Q02293+Q04631)
# Construct: Rat brain protein farnesyltransferase activity is measured; from tissue; host or cells: rat brain; purified according to Reiss et al., Cell 62:81-88 (1990), steps one through three
# test method notes: in vitro inhibition of protein farnesyltransferase (scintillation proximity assay, biotin-K Ras B fragment)
# Format: biochemical
# run parameters: at 1 × 10^-7 M
The figure you give is taken to be in %; do not add the unit.

chemical_structure=CSCC[C@H](NC(=O)c1ccc(COCc2ccc(-c3cccc(F)c3)o2)cc1-c1ccccc1C)C(=O)[O-].[Li+] measurement_name="% inhibition of farnesyltransferase" output_unit=% observed_measurement=89
chemical_structure=CSCC[C@H](NC(=O)c1ccc(COCc2ccc(Cl)cc2)cc1-c1ccccc1C)C(=O)[O-].[Li+] measurement_name="% inhibition of farnesyltransferase" output_unit=% observed_measurement=91

So the reported % inhibition of farnesyltransferase for CSCC[C@H](NC(=O)c1ccc(COCc2ccc(-c3ccc(F)cc3)o2)cc1-c1ccc(F)cc1Cl)C(=O)[O-].[Li+] , on protein farnesyltransferase (Rattus norvegicus, UniProt Q02293+Q04631), turned out to be 92

The recorded % inhibition of farnesyltransferase with protein farnesyltransferase (Rattus norvegicus, UniProt Q02293+Q04631) for CSCC[C@H](NC(=O)c1ccc(COCc2ccc(-c3cccc([N+](=O)[O-])c3)o2)cc1-c1ccccc1C)C(=O)[O-].[Li+] was 92

Short answer on protein farnesyltransferase (Rattus norvegicus, UniProt Q02293+Q04631) for CSCC[C@H](NC(=O)c1ccc(COCc2ccc(-c3ccccc3F)o2)cc1-c1ccccc1C)C(=O)[O-].[Li+] , % inhibition of farnesyltransferase: 89

The recorded % inhibition of farnesyltransferase with protein farnesyltransferase (Rattus norvegicus, UniProt Q02293+Q04631) for COc1ccccc1CCOCc1ccc(C(=O)N[C@@H](CCSC)C(=O)O)c(-c2ccccc2C)c1 was 91
